Just for reference, patent US9029370B2 is where these values come from.

Target entity: rat TAAR1 (Rattus norvegicus (Rat))
Sequence (Q923Y9 whole entry): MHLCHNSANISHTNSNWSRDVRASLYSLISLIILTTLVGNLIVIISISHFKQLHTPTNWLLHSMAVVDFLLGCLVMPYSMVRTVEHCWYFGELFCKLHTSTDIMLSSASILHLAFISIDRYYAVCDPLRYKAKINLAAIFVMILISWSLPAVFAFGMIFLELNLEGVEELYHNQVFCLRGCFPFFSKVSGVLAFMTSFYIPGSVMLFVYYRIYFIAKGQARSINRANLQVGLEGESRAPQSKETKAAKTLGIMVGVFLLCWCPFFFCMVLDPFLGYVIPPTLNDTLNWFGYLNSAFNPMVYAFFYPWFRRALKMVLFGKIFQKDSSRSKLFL
Measurement protocol: Radioligand binding assay on rat TAAR1
Assay setup: rat TAAR1, HEK-293 membranes; second value of the pair (line below); read-out: Ki (μM) mouse/rat
Counter-ions that a name gives are not always drawn.
Note to self: class = bucket of Ki, per class 0 = under 0.004 µM, class 1 = from 0.004 µM up to 0.02 µM, class 2 = 0.02 µM and over

[ask] Which class does "COc1ccc(C#N)cc1NC(=O)Nc1ccc([C@@H]2CNCCO2)cc1Br" fall in?
[reply] class 1

[ask] Which class does O=C(Nc1ccc([C@@H]2CNCCO2)c(F)c1)c1cnn(-c2ccc(OC(F)F)cc2)c1 [Example 86, hydrochloride] fall in?
[reply] class 0

[ask] Which class does CCOc1ccc(C(=O)Nc2ccc([C@H]3CNCCO3)c(F)c2)cn1 [Example 89, hydrochloride] fall in?
[reply] class 2

[ask] Which class does "O=C(Nc1cnc(C(F)(F)F)nc1)Nc1ccc([C@H]2CNCCO2)cc1Br" fall in?
[reply] class 1

[ask] Which class does COc1ccc(C#N)cc1NC(=O)Nc1ccc([C@H]2CNCCO2)cc1F [Example 39, hydrochloride] fall in?
[reply] class 1

[ask] Which class does "Cc1cc([C@@H]2CNCCO2)ccc1NC(=O)c1ccc(Cl)nc1" fall in?
[reply] class 2

[ask] Which class does "N#Cc1cc(F)cc(NC(=O)Nc2ccc([C@H]3CNCCO3)cc2F)c1" fall in?
[reply] class 0

[ask] Which class does "N#Cc1cc(F)cc(NC(=O)Nc2ccc([C@@H]3CNCCO3)cc2F)c1" fall in?
[reply] class 0

[ask] Which class does Cc1nc(C(=O)Nc2ccc([C@H]3CNCCO3)cc2F)ccc1C#N [Example 135, hydrochloride] fall in?
[reply] class 2

[ask] Which class does "O=C(Nc1ccc(Cl)cn1)Nc1ccc([C@@H]2CNCCO2)cc1Cl" fall in?
[reply] class 0

[ask] Which class does O=C(Nc1ccc([C@H]2CNCCO2)c(Cl)c1)c1cnn(-c2cncc(C(F)(F)F)n2)c1 [Example 128, hydrochloride] fall in?
[reply] class 0

[ask] Which class does O=C(Nc1ccc([C@@H]2CNCCO2)c(F)c1)c1ccnc(C(F)(F)F)c1 [Example 83, hydrochloride] fall in?
[reply] class 1

[ask] Which class does "O=C(Nc1ccc(C(F)(F)F)cn1)Nc1ccc([C@H]2CNCCO2)cc1Cl" fall in?
[reply] class 0

[ask] Which class does "Cn1nc(-c2ccccc2)cc1C(=O)Nc1ccc([C@H]2CNCCO2)cc1F" fall in?
[reply] class 1

[ask] Which class does CCOc1ccc(C(=O)Nc2ccc([C@@H]3CNCCO3)c(Cl)c2)cn1 [Example 92, hydrochloride] fall in?
[reply] class 1

[ask] Which class does "O=C(Nc1ccc([C@H]2CNCCO2)cc1Cl)c1ccc(Cl)nc1" fall in?
[reply] class 2

[ask] Which class does "CCOc1ccc(C(=O)Nc2ccc([C@H]3CNCCO3)cc2F)cn1" fall in?
[reply] class 2

[ask] Which class does N#Cc1ccnc(C(=O)Nc2ccc([C@H]3CNCCO3)cc2F)c1 [Example 79, hydrochloride] fall in?
[reply] class 2

[ask] Which class does "Cn1nc(-c2ccccc2)cc1C(=O)Nc1ccc([C@@H]2CNCCO2)cc1F" fall in?
[reply] class 0

[ask] Which class does "N#Cc1cccc(CNC(=O)Nc2ccc([C@@H]3CNCCO3)cc2F)c1" fall in?
[reply] class 2

[ask] Which class does "O=C(NCc1cccc(OC(F)F)c1)Nc1ccc([C@@H]2CNCCO2)cc1F" fall in?
[reply] class 1

[ask] Which class does Cc1cc(C(=O)Nc2ccc([C@H]3CNCCO3)c(F)c2)cc(C(N)=O)n1 [Example 114, hydrochloride] fall in?
[reply] class 2

[ask] Which class does O=C(Nc1ccc([C@H]2CNCCO2)c(F)c1)c1cnc(C(F)(F)F)cn1 [Example 137, hydrochloride] fall in?
[reply] class 2

[ask] Which class does "COc1cc(C(=O)Nc2ccc([C@H]3CNCCO3)cc2F)cc(Cl)n1" fall in?
[reply] class 1

[ask] Which class does CCOc1cc(C(=O)Nc2ccc([C@@H]3CNCCO3)c(F)c2)ccn1 [Example 84, hydrochloride] fall in?
[reply] class 1

[ask] Which class does CCc1cc(C(=O)Nc2ccc([C@H]3CNCCO3)c(F)c2)cc(C(N)=O)n1 [Example 117, hydrochloride] fall in?
[reply] class 2

[ask] Which class does "COc1cc(C(=O)Nc2ccc([C@@H]3CNCCO3)cc2F)cc(Cl)n1" fall in?
[reply] class 1

[ask] Which class does "COc1ccc(C#N)cc1NC(=O)Nc1ccc([C@@H]2CNCCO2)cc1Cl" fall in?
[reply] class 1

[ask] Which class does O=C(Nc1ccc(Cl)nc1)Nc1ccc(C2CCNC2)cc1Cl (racemic) fall in?
[reply] class 1

[ask] Which class does "N#Cc1ccc(F)c(NC(=O)Nc2ccc([C@@H]3CNCCO3)cc2F)c1" fall in?
[reply] class 0

[ask] Which class does O=C(Nc1ccc([C@H]2CNCCO2)cc1Cl)c1cnn(-c2cncc(C(F)(F)F)n2)c1 [Example 126, hydrochloride] fall in?
[reply] class 1
